molecular target: Mcl-1 protein (UniProtKB Q07820) (Homo sapiens (Human), UniProt Q07820); assay: Inhibition of Mcl-1 by the fluorescence polarisation assay (Example A, Method A); details: fluorescence polarization assay
Sequence (Q07820 whole entry): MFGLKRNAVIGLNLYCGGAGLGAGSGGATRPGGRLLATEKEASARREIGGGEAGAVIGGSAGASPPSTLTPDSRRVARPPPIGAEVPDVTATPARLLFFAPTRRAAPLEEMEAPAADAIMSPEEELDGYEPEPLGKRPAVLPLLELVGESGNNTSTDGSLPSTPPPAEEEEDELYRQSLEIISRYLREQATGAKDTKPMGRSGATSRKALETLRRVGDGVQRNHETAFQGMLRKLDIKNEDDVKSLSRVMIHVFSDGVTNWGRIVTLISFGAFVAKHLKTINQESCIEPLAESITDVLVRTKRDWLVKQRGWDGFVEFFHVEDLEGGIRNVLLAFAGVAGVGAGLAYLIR
pKi: −log10 of the molar value.
RECORDED_METRIC: pKi

Record excerpt, results attached:
# MOLECULE, pKi
data = [
    ("O=C(O)[C@]1(Nc2cccc(Cl)c2)CC[C@]2(CC1)C(c1cccc3occc13)=Cc1ccccc12", 6.04),
    ("O=C(O)[C@]1(Nc2cccc(C(F)F)c2)CC[C@]2(CC1)C(Br)=Cc1ccccc12", 5.87),
    ("COc1ccc(C)c(C2=Cc3ccccc3[C@]23CC[C@@](Nc2cccc(Cl)c2)(C(=O)O)CC3)c1", 5.28),
    ("C[C@H]1Cc2ccccc2[C@]12CC[C@@](Nc1cccc(Br)c1)(C(=O)O)CC2", 6.38),
]

1. O=C(O)[C@]1(Nc2cccc(Cl)c2)CC[C@@]2(CC1)c1ccccc1CC2[C@H]1C[C@@H]1COc1ccnc2ccsc12 (single isomer, unassigned) [Example 106]
2. O=C(O)C1(Nc2cccc(Br)c2)CCC2(CC1)c1ccccc1CC2c1nccs1 (single isomer, unassigned)
3. CC1=Cc2ccccc2[C@]12CC[C@@](Nc1cccc(Cl)c1)(C(=O)O)CC2
4. C#Cc1ccc2c(c1)[C@]1(CC[C@](Nc3cccc(Br)c3)(C(=O)O)CC1)C(=O)N2C
5. O=C(O)[C@]1(Nc2cccc(Cl)c2)CC[C@@]2(CC1)c1ccccc1CC2CCCOc1ccccc1C(F)(F)F (some centres unmarked)
Request: Ordering: ascending pKi. Provide the labels, sequenced as the question asks.
Response: 4, 2, 1, 3, 5

Where these numbers come from: patent US20240150293A1
